experiment: Cytotoxicity against human HCT15 cells after 3 days by CCK8 assay; format: functional, cell-based; details: HCT-15, 72 h
measurement.type: pIC50
Hey, just a heads up that pIC50 is the negative log base 10 of the concentration in molar.

Lab note: Oc1ccc(-c2cc(-c3ccc(Cl)cc3)c3c(n2)-c2ccccc2C3)cc1 gave pIC50 of 6.03

====

target: UniProt:P11387; assay: Inhibition of human recombinant DNA topoisomerase 1 at 100 uM assessed as relaxation of supercoiled DNA pBR322 after 30 mins by Agarose gel electrophoresis
Sequence (P11387 whole entry): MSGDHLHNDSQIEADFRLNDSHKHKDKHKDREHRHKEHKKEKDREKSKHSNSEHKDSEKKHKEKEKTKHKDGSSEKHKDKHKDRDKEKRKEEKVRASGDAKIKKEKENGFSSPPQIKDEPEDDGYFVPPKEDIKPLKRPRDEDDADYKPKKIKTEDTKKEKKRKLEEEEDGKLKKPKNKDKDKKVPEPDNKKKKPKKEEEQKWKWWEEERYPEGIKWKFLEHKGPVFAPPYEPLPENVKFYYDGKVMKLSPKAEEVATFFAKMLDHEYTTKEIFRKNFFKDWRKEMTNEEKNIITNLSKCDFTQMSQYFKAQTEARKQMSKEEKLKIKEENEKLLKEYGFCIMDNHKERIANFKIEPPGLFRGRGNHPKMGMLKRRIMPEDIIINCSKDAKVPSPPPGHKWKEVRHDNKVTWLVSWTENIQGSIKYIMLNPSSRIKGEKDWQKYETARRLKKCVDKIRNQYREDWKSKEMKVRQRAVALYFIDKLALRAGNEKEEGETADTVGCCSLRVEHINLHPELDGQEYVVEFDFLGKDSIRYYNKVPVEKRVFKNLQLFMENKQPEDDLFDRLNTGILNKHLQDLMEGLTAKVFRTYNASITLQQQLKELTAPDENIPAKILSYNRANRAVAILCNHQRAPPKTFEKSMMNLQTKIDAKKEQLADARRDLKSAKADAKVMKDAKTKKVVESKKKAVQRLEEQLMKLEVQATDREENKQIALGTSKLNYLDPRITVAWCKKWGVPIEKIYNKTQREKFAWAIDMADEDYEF
We use 0.8% as the dividing line for inhibition: on or above the line is 1 (yes), below is 0 (no).

Some solved entries appear below for comparison.
Oc1cccc(-c2cc(-c3ccccc3)nc3c2Cc2ccccc2-3)c1    1 (yes)
Oc1cccc(-c2cc(-c3ccc(Cl)cc3)nc3c2Cc2ccccc2-3)c1    0 (no)
Oc1ccccc1-c1cc(-c2ccc(Cl)cc2)nc2c1Cc1ccccc1-2    0 (no)

Q: Reported inhibition at or above 0.8%? Oc1ccc(-c2cc(-c3ccc(Cl)cc3)nc3c2Cc2ccccc2-3)cc1
Result: 1 (yes)

Q: Reported inhibition at or above 0.8%? Oc1cccc(-c2cc(-c3ccccc3)c3c(n2)-c2ccccc2C3)c1
Result: 1 (yes)

Q: Reported inhibition at or above 0.8%? Oc1ccccc1-c1cc(-c2ccc(Cl)cc2)c2c(n1)-c1ccccc1C2
Result: 1 (yes)

Q: Reported inhibition at or above 0.8%? Oc1cccc(-c2cc(-c3cccc(Cl)c3)nc3c2Cc2ccccc2-3)c1
Result: 0 (no)

Q: Reported inhibition at or above 0.8%? Oc1cccc(-c2cc(-c3cccc(Cl)c3)c3c(n2)-c2ccccc2C3)c1
Result: 1 (yes)

Q: Reported inhibition at or above 0.8%? Oc1ccc(-c2cc(-c3ccccc3Cl)nc3c2Cc2ccccc2-3)cc1
Result: 0 (no)

Q: Reported inhibition at or above 0.8%? Oc1ccccc1-c1cc(-c2ccccc2)nc2c1Cc1ccccc1-2
Result: 1 (yes)

Q: Reported inhibition at or above 0.8%? Oc1ccc(-c2cc(-c3cccc(Cl)c3)nc3c2Cc2ccccc2-3)cc1
Result: 0 (no)

Q: Reported inhibition at or above 0.8%? Oc1ccc(-c2cc(-c3ccccc3)nc3c2Cc2ccccc2-3)cc1
Result: 1 (yes)

====

Overview of reported pIC50 across a group of molecules:
assay: Cytotoxicity against human HCT15 cells after 3 days by CCK8 assay; format: functional, cell-based; settings: HCT-15, 72 h
Hey, just a heads up that pIC50 is the negative log base 10 of the concentration in molar.

A selection of reference data follows.
Oc1cccc(-c2cc(-c3ccccc3)c3c(n2)-c2ccccc2C3)c1    5.57
Oc1cccc(-c2cc(-c3cccc(Cl)c3)nc3c2Cc2ccccc2-3)c1    5.51
Oc1cccc(-c2cc(-c3ccccc3Cl)c3c(n2)-c2ccccc2C3)c1    5.93

Lab note: Oc1ccc(-c2cc(-c3cccc(Cl)c3)c3c(n2)-c2ccccc2C3)cc1 gave pIC50 of 6.09

Lab note: Oc1ccccc1-c1cc(-c2cccc(Cl)c2)nc2c1Cc1ccccc1-2 gave pIC50 of 4.52

Lab note: COc1cc([C@@H]2c3cc4c(cc3[C@@H](O[C@@H]3O[C@@H]5CO[C@@H](C)O[C@H]5[C@H](O)[C@H]3O)[C@H]3COC(=O)[C@H]23)OCO4)cc(OC)c1O [ETOPOSIDE] gave pIC50 of 5.55

Lab note: Oc1cccc(-c2cc(-c3ccc(Cl)cc3)nc3c2Cc2ccccc2-3)c1 gave pIC50 of 5.73

Lab note: Oc1cccc(-c2cc(-c3ccccc3)nc3c2Cc2ccccc2-3)c1 gave pIC50 of 5.87
